test: A549 lung cancer cell viability effects, profiling panel, resazurin fluorescence, 24 h, PK04 Diversity Set (AID 1171); details: higher = more signal, called active from +8 up or from −8 down; further: test concentration not given here
Below is a list of entries, each paired with its recorded z-score value.
READOUT_NAME: z-score

- MOLECULE: "CC(C)(C)OC(=O)CC[C@]1(C(=O)NCCN2CCOCC2)N=C(c2ccc(OCCCO)cc2)O[C@H]1c1ccccc1"
  MEASURED: 0.0762
- MOLECULE: "COc1cc2c(cc1OC)CN(C(=O)[C@H]1[C@@H]3C(=O)O[C@@H](c4ccccc4)[C@@H](c4ccccc4)N3[C@@H](c3ccc(OCCO)cc3)[C@]13C(=O)Nc1ccc(C#CC4(O)CCCCCC4)cc13)CC2"
  MEASURED: -0.354
- MOLECULE: "COC1(C)CN(Cc2ccccc2Br)[C@H](/C=C/c2ccccc2)[C@H](Cc2ccccc2)O1 (some centres undefined)"
  MEASURED: 0.494
- MOLECULE: "CCN(CC)c1ccc(N2CC=CC34O[C@@H]5/C=C\\CCC(C)OC(=O)C5[C@H]3C(=O)N(CCO)[C@@H]4C2=O)cc1 (some centres undefined)"
  MEASURED: -0.857

* * *

system: Human papillomavirus type 1a protein E7 (residues 44-93); test: HPV1a E7 fragment binders on microarrays, primary screen, biochemical, small-molecule microarray, residues 44-93, 635 nm fluorescence (AID 1108); conditions: small-molecule microarray binding, fluorescence 635 nm; higher = more signal;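 further: E7 fragment applied at 1 µg/mL in TBST for 1 h at 4 C; score combines spot fluorescence with its signal to noise ratio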

- COMPOUND: "Cc1ccc(S[C@]2(C(=O)NCC(C)C)CC(=O)N(Cc3ccccc3Cl)[C@@H]2c2ccc(CO)cc2I)cc1"
  composite z-score: 0.409
- COMPOUND: "C=CCC(OC(C)=O)[C@@H]1[C@@H](N(Cc2cc3ccccc3o2)C(=O)Cc2ccc(F)cc2)c2cc(OCCCO)ccc2N1C(=O)c1ccc2ccccc2n1 (some centres undefined)"
  composite z-score: -0.221
- COMPOUND: "COc1c(C)cc(-c2cc3c(c(Cc4ccccc4)n2)[Si](C(C)C)(C(C)C)OC3)cc1C"
  composite z-score: -0.0363
- COMPOUND: "CCOC(=O)C[C@H]1[C@H](OC(=O)c2ccc(-c3ccccc3)cc2)[C@@H](NC(=O)C2CCCCC2)c2cc(OCCCO)ccc2N1C(=O)c1ccccc1"
  composite z-score: 0.959
- COMPOUND: "[N-]=[N+]=NCc1ccccc1C[C@@]1(C(=O)N2CCCCC2)N=C(c2ccc(OCCCO)cc2)O[C@@H]1c1ccccc1N=[N+]=[N-]"
  composite z-score: 1.37
- COMPOUND: "C=CC[C@@]1(C(=O)O)N=C(c2ccc(OCCCO)cc2)O[C@@H]1c1ccccc1"
  composite z-score: 1.35
- COMPOUND: "COc1ccc(C(O)C2C=CC3C(=O)N(Cc4ccccc4)C(=O)C3N2n2cnnc2)c2ccccc12 (centres undefined)"
  composite z-score: 1.52
- COMPOUND: "CCOC(=O)[C@H]1C/C=C/C[C@H](C(=O)OCC)C(=O)O[C@H]2[C@@H](OC)O[C@H](CO)[C@@H](OC(=O)CCc3ccccc3)[C@@H]2OC1=O"
  composite z-score: -0.431
- COMPOUND: "[N-]=[N+]=NCc1ccccc1C[C@@]1(C(=O)NCCN2CCOCC2)N=C(c2ccc(OCCCO)cc2)O[C@@H]1c1ccccc1N=[N+]=[N-]"
  composite z-score: 1.4
- COMPOUND: "COC(=O)[C@H](Cc1ccccc1)N1CC(/C=C/C2CC2)=C[C@@H]1[C@@H](O)Cc1ccccc1"
  composite z-score: 1.31
- COMPOUND: "O=C1O[C@@H](c2ccccc2)[C@@H](c2ccccc2)N2[C@@H](c3ccc(O)cc3)[C@]3(C(=O)Nc4ccc(C#CCCO)cc43)[C@@H](C(=O)NC[C@H](O)c3ccccc3)[C@H]12"
  composite z-score: 0.334
- COMPOUND: "CC(=O)n1cc(C(O)C2C=CC3C(=O)N(Cc4ccccc4)C(=O)C3N2n2cnnc2)c2ccccc21 (centres undefined)"
  composite z-score: -0.179
- COMPOUND: "COc1ccc(C(O)C2C=CC3C(=O)N(C)C(=O)C3N2N2CCCCC2)cc1 (centres undefined)"
  composite z-score: 0.069
- COMPOUND: "O=C1O[C@@H](c2ccccc2)[C@@H](c2ccccc2)N2[C@@H](c3ccccc3OCCO)[C@]3(C(=O)Nc4ccc(C#CCCO)cc43)[C@@H](C(=O)Nc3nc4ccccc4s3)[C@H]12"
  composite z-score: -0.503

* * *

Below is a list of entries, each paired with its recorded composite z-score value.
tested on: Wnt5a (protein binding on small-molecule microarray); assay: Wnt5a binders on small-molecule microarray, primary screen, biophysical, 635/667 nm fluorescence (AID 1142); conditions: 635 nm fluorescence, higher = more signal;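 further: fluorescence read at 667 nm with signal to noise per printed feature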

- MOLECULE: "NC(=O)NCC#Cc1ccc2c(c1)[C@]1(C(=O)N2)[C@H](c2ccc(O)cc2)N2[C@H](c3ccccc3)[C@H](c3ccccc3)OC(=O)[C@H]2[C@@H]1C(=O)Nc1nc2ccccc2s1"
  ASSAY_TARGET: "Wnt5a (protein binding on small-molecule microarray)"
  composite z-score: 0.303
- MOLECULE: "C[C@H]1C2=C3C(CC[C@H]4C(OCc5ccc(F)cc5C(F)(F)F)OC[C@](C)([C@@H]34)N(C(=O)OC(C)(C)C)C2)C2COC(=O)OCC21 (stereo partly specified)"
  ASSAY_TARGET: "Wnt5a (protein binding on small-molecule microarray)"
  composite z-score: 0.163
- MOLECULE: "COc1ccc([Si](C)(C)[C@H]2[C@H](CCO)O[C@@]3(C(=O)N(Cc4cccc(N5CCCCC5=O)c4)c4ccccc43)[C@@H]2C)cc1"
  ASSAY_TARGET: "Wnt5a (protein binding on small-molecule microarray)"
  composite z-score: 0.416
- MOLECULE: "COC(=O)C1(Cc2ccccc2)C=C2C(=C(C(C)C)C(=O)C2C)CN1 (stereo unspecified)"
  ASSAY_TARGET: "Wnt5a (protein binding on small-molecule microarray)"
  composite z-score: 0.131
- MOLECULE: "CC=CC(O)C1C=CC2C(=O)N(c3ccccc3)C(=O)C2N1Nc1ccc([N+](=O)[O-])cc1 (stereo unspecified)"
  ASSAY_TARGET: "Wnt5a (protein binding on small-molecule microarray)"
  composite z-score: -0.0454
- MOLECULE: "COc1ccc(C#Cc2ccc3c(c2)[C@]2(C(=O)N3)[C@H](C(=O)N3CCc4cc(OC)c(OC)cc4C3)[C@H]3C(=O)O[C@H](c4ccccc4)[C@H](c4ccccc4)N3[C@@H]2c2ccc(O)cc2)cc1"
  ASSAY_TARGET: "Wnt5a (protein binding on small-molecule microarray)"
  composite z-score: 0.219

* * *

target: Neurogenic locus notch homolog protein 2 (Homo sapiens); assay: Notch2 binders on small-molecule microarrays, primary screen, biochemical, small-molecule microarray, 635 nm fluorescence, stem cell growth factors (AID 1073); settings: Notch2 binding, higher = more signal
Below is a list of entries, each paired with its recorded composite z-score value.

- SMILES_REPRESENTATION: "COc1cc2c(cc1OC)CN(C(=O)[C@H]1[C@@H]3C(=O)O[C@@H](c4ccccc4)[C@@H](c4ccccc4)N3[C@@H](c3ccc(OCCO)cc3)[C@]13C(=O)Nc1ccc(C#CCCO)cc13)CC2"
  composite z-score: 1.43
- SMILES_REPRESENTATION: "[N-]=[N+]=NCc1ccccc1[C@H]1OC(c2ccc(OCCCO)cc2)=N[C@@]1(CCS(=O)(=O)c1ccccc1)C(N)=O"
  composite z-score: 1.65
- SMILES_REPRESENTATION: "CO[C@H]1O[C@H](CO)[C@@H](OC(=O)c2ccc(Br)cc2)[C@@H]2OC(=O)[C@@H](Cc3ccc4ccccc4c3)C/C=C/C[C@H](Cc3ccc4ccccc4c3)C(=O)O[C@@H]12"
  composite z-score: 0.714
- SMILES_REPRESENTATION: "CCOC(=O)C1=CC[C@@H](c2cc(Cl)ccc2Cl)N(S(=O)(=O)c2ccc(C)cc2)[C@H]1c1ccc(OC)cc1"
  composite z-score: 0.147
- SMILES_REPRESENTATION: "Cc1c(NC(=O)/C(C#N)=C/C=C/c2ccccc2[N+](=O)[O-])c(=O)n(-c2ccccc2)n1C"
  composite z-score: 1.03
- SMILES_REPRESENTATION: "COc1ccc([Si](C)(C)[C@H]2[C@H](CCn3cc(CCO)nn3)O[C@@]3(C(=O)N(Cc4ccc(N5C(=O)c6cccc7cccc5c67)cc4)c4ccccc43)[C@@H]2C)cc1"
  composite z-score: 0.611

* * *

test: binders of probe aFST on microarray, primary screen, stem cell growth factor project, biochemical, small-molecule microarray, fluorescence 635/667 (AID 1086); details: higher = more signal;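 further: score merges 667 nm fluorescence with signal-to-noise of each printed compound spot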
Below is a list of entries, each paired with its recorded composite z-score value.

- MOLECULE: "COC(=O)[C@@]1(Cc2ccccc2)[C@H]2c3cc(C(=O)N4CCCC4)n(Cc4ccsc4Br)c3C[C@H]2CN1C(=O)c1ccccc1"
  composite z-score: 1.51
- MOLECULE: "CN(C)CCCNC(=O)[C@@H]1c2ccccc2C(=O)N(Cc2ccc(OC(F)(F)F)cc2)[C@H]1c1ccc(CO)cc1"
  composite z-score: 0.18
- MOLECULE: "COc1ccccc1CN1C(=O)c2ccccc2[C@](Cc2ccccc2I)(C(=O)NC(C)C)[C@@H]1c1ccc(CO)cc1"
  composite z-score: 0.614
- MOLECULE: "CO[C@H]1O[C@H](CO)[C@@H](OC(=O)Nc2ccccc2-c2ccccc2)[C@H](OC(=O)Nc2ccc3c(c2)OCO3)[C@@H]1OC(=O)Nc1ccc2c(c1)OCO2"
  composite z-score: 1.2
- MOLECULE: "COCCCNC(=O)[C@]1(CCC(=O)OC(C)(C)C)N=C(c2ccc(OCCCO)cc2)O[C@@H]1c1ccccc1"
  composite z-score: 0.888
- MOLECULE: "COC(=O)[C@@]1(Cc2ccccc2)[C@H]2c3cc(C(=O)N4CCCC4)[nH]c3C[C@H]2CN1C(=O)c1ccccc1"
  composite z-score: 0.623
- MOLECULE: "CC(C)C(O)C1C=CC2C(=O)N(C)C(=O)C2N1Nc1ccccc1 (stereo not drawn)"
  composite z-score: 1.35
- MOLECULE: "Cc1c(NC(=O)/C(C#N)=C/C=C/c2ccc(N(C)C)cc2)c(=O)n(-c2ccccc2)n1C"
  composite z-score: 0.512

The measured values listed here are drawn from PubChem BioAssay.
